Quick list: koff per entry.
Target: T1, Cynomolgus TCR(AEA41865/AEA41866)-zipper protein (cynomolgus monkey)
T1 construct: also called cyTCR-zipper protein; cynoTCR zipper
T1 TCR alpha: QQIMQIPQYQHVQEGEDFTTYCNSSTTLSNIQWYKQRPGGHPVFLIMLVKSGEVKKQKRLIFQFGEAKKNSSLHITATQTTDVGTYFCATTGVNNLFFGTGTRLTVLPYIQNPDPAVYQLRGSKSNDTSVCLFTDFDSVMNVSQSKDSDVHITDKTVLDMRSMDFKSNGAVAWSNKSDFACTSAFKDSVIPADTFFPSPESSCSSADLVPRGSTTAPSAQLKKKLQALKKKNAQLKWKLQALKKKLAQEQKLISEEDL
T1 TCR beta: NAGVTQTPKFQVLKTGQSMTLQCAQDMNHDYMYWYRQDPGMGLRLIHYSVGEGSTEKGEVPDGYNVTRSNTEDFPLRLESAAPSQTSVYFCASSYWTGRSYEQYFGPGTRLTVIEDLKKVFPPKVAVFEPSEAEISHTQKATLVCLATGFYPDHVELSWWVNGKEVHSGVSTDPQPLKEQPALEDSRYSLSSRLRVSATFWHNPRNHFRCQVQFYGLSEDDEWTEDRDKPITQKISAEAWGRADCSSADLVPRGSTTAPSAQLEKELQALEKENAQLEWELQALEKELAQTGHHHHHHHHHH
Assay: SPR ProteOn off-rate screen
Numeric answer only, unit s⁻¹ assumed.

Consider the following illustrative entries.
INSERT INTO assay_data (binder, observed_result) VALUES
  ('T017000249 (VHH) VHH: EVQLVESGGGVVQPGGSLRLSCVASGDVHKINFLGWYRQAPGKEREKVAHISIGDVTDYADSAKGRFTISRDESKNMVYLQMNSLRPEDTALYFCRAFSRIYPYDYWGQGTLVTVSS', 0.00939),
  ('T017000231 (VHH) VHH: EVQLVESGGGVVQPGGSLRLSCVASGDVHKINFLGWYRQAPGKEREKVAVISIGDQTDYADSAKGRFTISRDESKNMVYLQMNSLRPEDTALYFCRAFSRIYPYDYWGQGTLVTVSS', 0.00867),
  ('T017000223 (VHH) VHH: EVQLVESGGGVVQPGGSLRLSCVASGDVHKINFLGWYRQAPGKEREKVAHISIGDQADYADSAKGRFTISRDESKNMVYLQMNSLRPEDTALYFCRAFSRIYPYDYWGQGTLVTVSS', 0.0109),
  ('T017000235 (VHH) VHH: EVQLVESGGGVVQPGGSLRLSCVASGDVHKINFLGWYRQAPGKEREKVAHISIGDHTDYADSAKGRFTISRDESKNMVYLQMNSLRPEDTALYFCRAFSRIYPYDYWGQGTLVTVSS', 0.011);

# evaluate next
*Q* Which measured koff value corresponds to T017000234 (VHH) VHH: EVQLVESGGGVVQPGGSLRLSCVASGDVHKINFLGWYRQAPGKEREKVAMISIGDQTDYADSAKGRFTISRDESKNMVYLQMNSLRPEDTALYFCRAFSRIYPYDYWGQGTLVTVSS ?
*A* 0.0118
